# Tested on: MDA-MB-468 breast
# TEST_DESCRIPTION: NCI-60 one-dose screen, 48 h (100 = growth as untreated, 0 = no growth, -100 = all killed)
# STUDY_CONDITIONS: 10 µM unless noted
Compounds without any hit were thinned out: in the full panel of roughly 83,000, 20% have a hit.
With a cut-off of 20%, any growth strictly below it is called met; any growth meeting it or above is called not met.

growth strictly < 20% for this molecule? Nc1c(C(=O)Nc2cccc([N+](=O)[O-])c2)sc2nc3c(cc12)C(O)CCC3 (centres undefined)
not met

growth strictly < 20% for this molecule? CN(C)CCOc1ccc(/C(=C(/CCCl)c2ccccc2)c2ccccc2)cc1
met

growth strictly < 20% for this molecule? Cn1ccc(=Nc2ccc(NC(=O)c3ccc(N=c4ccn(C)c5ccc([N+](=O)[O-])cc45)cc3)cc2)cc1
met

growth strictly < 20% for this molecule? CN1CCN(c2nc(NCCNc3ccnc4cc(Cl)ccc34)c3ccccc3n2)CC1
met

growth strictly < 20% for this molecule? COc1ccc(/C=C/c2c(C(C)=O)c(C)nc3ccccc23)cc1
not met

growth strictly < 20% for this molecule? O=C(OCC1OC(n2cc(C(F)(F)F)c(=O)[nH]c2=O)CC1OC(=O)c1ccc([N+](=O)[O-])cc1)c1ccc([N+](=O)[O-])cc1 (centres undefined)
not met

growth strictly < 20% for this molecule? COc1ccccc1-n1c(SCc2cc(OC)c(OC)c(OC)c2)nc2ccc(Cl)cc2c1=O
not met

growth strictly < 20% for this molecule? COc1ccc([C@H]2c3cc(OC)c(OC)cc3C=C(C=O)C2CO)cc1OC (some centres undefined)
not met

growth strictly < 20% for this molecule? C#Cc1cc2c(N)c(C(=O)c3cc(OC)c(OC)c(OC)c3)[nH]c2cc1OC
met

growth strictly < 20% for this molecule? O=C1CCC(NC(=S)Nc2ccccc2)N1 (centres undefined)
not met

growth strictly < 20% for this molecule? O=C(Nc1ccc(-n2ccc3c(NC(=O)c4ccccc4)nccc32)cc1)Nc1ccc(Cl)c(Cl)c1
met

growth strictly < 20% for this molecule? O=S(=O)(Nc1ccc(-n2cnc3cc(-c4ccc(O)cc4)ccc32)cc1)c1ccccc1
not met

growth strictly < 20% for this molecule? CNCCNc1nc2ccccc2c2c(=O)c3cccc(C)c3sc12
met

growth strictly < 20% for this molecule? Nc1nc(Nc2ccccc2)n[nH]1
not met

growth strictly < 20% for this molecule? CCc1ccc(-c2nnc(COc3ccc(-c4nc5ccc(C)cc5[nH]4)cc3OC)o2)cc1
not met

growth strictly < 20% for this molecule? Cc1cc(=O)oc2cc(Oc3nc(Br)cn4c(Br)cnc34)ccc12
not met

growth strictly < 20% for this molecule? O=C1NC2(Nc3ccccc31)C(=O)Nc1c(Cl)cc(Cl)cc12 (centres undefined)
not met

growth strictly < 20% for this molecule? CCCC1CCC(=C2C(=O)CCC2=O)O1 (centres undefined)
not met

###

# System: MDA-MB-468 breast
# TEST_DESCRIPTION: NCI-60 one-dose screen, 48 h
# STUDY_CONDITIONS: 10 µM unless noted
About 83,000 compounds went through this panel and 20% of them were active in at least one assay; those are over-represented in the sample as a whole. Activity calls are given as the source filed them. How the source made its calls: active means growth percent below 10; inactive means the rest.
Please state which outcome applies, choosing from 1 (yes) for active, 0 (no) for inactive

Hi, do you know how C=C(C)[C@@H]1CC[C@]2(C(=O)OC)CC[C@]3(C)[C@H](CC[C@@H]4[C@@]5(C)C/C(=C/c6cccc(I)c6)C(=O)C(C)(C)[C@@H]5CC[C@]43C)[C@@H]12 came out in this test?
0 (no)

Hi, do you know how NCCn1cc(-c2nc(-c3c[nH]c4ncccc34)cs2)c2cc(F)ccc21 came out in this test?
0 (no)

Hi, do you know how O=C(NCc1ncc[nH]1)c1ccc(-c2nc3ccc4[nH]ncc4c3c3c2CCCC3)cc1 came out in this test?
1 (yes)

Hi, do you know how Fc1ccccc1CSc1ncnc2nc[nH]c12 came out in this test?
0 (no)

Hi, do you know how Cc1ccc(-c2csc(NC(=O)CN3CCN(c4cc5c(cc4F)c(=O)c(C(=O)O)cn5C4CC4)CC3)n2)cc1 came out in this test?
1 (yes)

Hi, do you know how C=C1C(=O)O[C@H]2[C@H]1CC/C(COC(=O)c1ccccc1)=C\CC[C@@]1(C)O[C@@H]21 came out in this test?
1 (yes)

Hi, do you know how CCCCCOC(=O)c1ccccc1O came out in this test?
0 (no)

Hi, do you know how Cc1nc2sc(C(=O)Nc3cccc4ncccc34)c(N)c2cc1C(C)O (centres undefined) came out in this test?
0 (no)

Hi, do you know how O=C(CSc1nnc(-c2ccc(Cl)cc2)n1-c1ccccc1)Nc1ccc(Cl)cc1 came out in this test?
1 (yes)

Hi, do you know how CCCCCCCCCCCCCCCCC(C(=O)O)C(O)(CC(=O)O)C(=O)O (centres undefined) came out in this test?
0 (no)

Hi, do you know how COc1ccc(/C=C2\COc3ccc(O)c(O)c3C2=O)cc1 came out in this test?
1 (yes)

Hi, do you know how O=[N+]([O-])CC(c1ccccc1F)c1c[nH]c2ccccc12 (centres undefined) came out in this test?
0 (no)

Hi, do you know how Cc1ccc2nc(Cl)c(Cn3nnnc3SCc3ccccc3)cc2c1 came out in this test?
0 (no)

Hi, do you know how C=C1C(=O)O[C@H]2[C@H]1CC/C(COC(=O)/C=C\C(=O)NCc1ccc(Cn3c(=O)sn(-c4ccccc4)c3=O)cc1)=C\CC[C@@]1(C)O[C@@H]21 came out in this test?
0 (no)

Hi, do you know how CS(CCCCN=C=S)=NC(=O)c1c(F)c(F)c(F)c(F)c1F (centres undefined) came out in this test?
0 (no)

Hi, do you know how COC(=O)Nc1nc2ccc(C(=O)c3ccc(N(C)C4COC4)cc3)cc2[nH]1 came out in this test?
1 (yes)

Hi, do you know how CN(C)CCOc1nc2c3cccnc3cc(-c3cccc(Cl)c3)c2c2ncccc12 came out in this test?
1 (yes)

Hi, do you know how [2H]c1nc(=Nc2cc(NC(=O)C=C)c(N(C)CCN(C)C)cc2OC)[nH]c(-c2cn(C([2H])([2H])[2H])c3ccccc23)c1[2H] came out in this test?
1 (yes)

Hi, do you know how CCOC(=O)N/N=C/c1ccc(OC)c(OC)c1 came out in this test?
0 (no)

###

# System: EKVX NSCLC
# TEST_DESCRIPTION: NCI-60 one-dose screen, 48 h
# STUDY_CONDITIONS: 10 µM
# Protocol: Growth inhibition of the EKVX human Non-Small Cell Lung tumor cell line is measured as a screen for anti-cancer activity. Cells are grown in 96 well plates and exposed to the test compound for 48 hours. Compounds are tested at a single concentration, which is 10^-5 M for most compounds. The reported endpoint is percent growth (GI% or GIPRCNT), where numbers from 0 - 100% represent growth inhibition, and numbers from -100% - 0 represent cell death. […]
Compounds without any hit were thinned out: in the full panel of roughly 83,000, 20% have a hit. Calls of active or inactive are those of the source. The calls were made as follows: active = growth percent below 10; inactive = the rest.
Please state which outcome applies, choosing from 1 for active, -1 for inactive

Hi, do you know how O=C(c1ccc(F)cc1)C(c1c[nH]c2ccccc12)c1c[nH]c2ccccc12 came out in this test?
-1

Hi, do you know how O=C1NC(=S)S/C1=C\c1cn(-c2ccccc2)nc1-c1ccc([N+](=O)[O-])cc1 came out in this test?
1

Hi, do you know how Cc1cc(N=C2NC(=O)/C(=C/c3cc(C(C)(C)C)c(O)c(C(C)(C)C)c3)S2)n[nH]1 came out in this test?
1

Hi, do you know how COc1ccc(Cn2cc(C#N)c(N)c2C(C)=O)c(OC)c1 came out in this test?
-1

Hi, do you know how CCOc1ccc(/C=N/NC(=O)Cn2nc(Cc3ccc(OC)cc3)c3onc(C)c3c2=O)cc1 came out in this test?
-1

###

# Tested on: MDA-MB-468 breast
# TEST_DESCRIPTION: NCI-60 one-dose screen, 48 h
# STUDY_CONDITIONS: 10 µM unless noted
The panel holds about 83,000 compounds, 20% with a hit somewhere; the sample as a whole holds those more often. The source made the active and inactive calls. How the source made its calls: active means growth percent below 10; inactive means the rest.
Please state which outcome applies, choosing from class 1 = active, class 0 = inactive

Hi, do you know how CS(=O)c1nccc(-c2c(-c3ccc(F)c(OCCc4ccc(F)cc4)c3)nc3sccn23)n1 (stereo not given) came out in this test?
class 1

Hi, do you know how Clc1c(Cl)[n+](Cc2ccc3ccccc3c2)cn1Cc1ccc2ccccc2c1 came out in this test?
class 1

Hi, do you know how COc1ccc(/C=C2\SC(=S)N(CCCN3CCOCC3)C2=O)c(OC)c1 came out in this test?
class 0

Hi, do you know how NC(=O)c1c(NC(=O)c2ccc(Cl)cc2)sc2c1CCC(=O)C2 came out in this test?
class 0

Hi, do you know how CCOC(=O)c1c(NC(=S)Nc2ccc([N+](=O)[O-])cc2)sc2c1CCCCC2 came out in this test?
class 0
